Tested on: 786-0 renal
measurementProtocol: NCI tumour cell line growth inhibition, 48 h
param class (str): category from TGI; see ranges bin A = under 6 µM, bin B = from 6 µM up to 30 µM, bin C = 30 µM and over

Exam item: Pick a category. Item: `CC(=O)n1c2ccc(Br)cc2c2nc3ccccc3nc21`
Marked response: bin C

Exam item: Assign a bin to `CC[C@]12C=CCN3CC[C@@]4(c5ccc(OC)cc5N(C)[C@H]4[C@@](O)(C(=O)OC)[C@@H]1OC(=O)CCCN1CCN(CCCC(=O)O[C@@H]4[C@]5(CC)C=CCN6CC[C@@]7(c8ccc(OC)cc8N(C)[C@H]7[C@@]4(O)C(=O)OC)[C@@H]65)CC1)[C@@H]32`
Marked response: bin A

Exam item: Class label required: `C#CCCCCCC(=O)N[C@H]1C=C[C@@H]2/C=C(C)/C=C/[C@@H](C)[C@H]([C@H](C)[C@H](O)[C@@H](C)NC(C)=O)OC(=O)/C=C/C=C(C)\C=C\[C@]2(C)C1`
Marked response: bin C

Exam item: Hi, small favor: classify `COC(=O)N/N=C(\C)c1sc(-c2nc(C)c(/C(C)=N/NC(=O)OC)s2)nc1C` by its TGI when you get a moment.
Marked response: bin C

Exam item: assign O=C(CC1(O)C(=O)Nc2c(Cl)ccc(Cl)c21)c1ccc(Cl)cc1 (stereo not given) to the correct category.
Marked response: bin C

Exam item: Each compound maps to one class by TGI. Which class for NC(CCC(=O)O)C(=O)NC(Cc1ccc(N(CCCl)CCCl)cc1)C(=O)O (stereo not given) ?
Marked response: bin C

Exam item: Which category does the recorded TGI put `O=[N+]([O-])c1ccc2c3c1[C@@H]1O[C@@H]1c1cccc(c1-3)[C@@H]1O[C@H]21` in?
Marked response: bin B

Exam item: # bin label for `O=C(O)c1ccccc1/C=C1\Cc2cc3c(cc2C1=O)CCC3`
Marked response: bin C

Exam item: Category of `N#Cc1c(CC(=O)O)cc(=O)n2c1[nH]c1ccccc12` , please.
Marked response: bin C

Exam item: Assign a bin to CC(C)(C)C1CC[C@H]2c3c([nH]c4ccccc34)[C@H]3C(=O)N(c4ccc(F)cc4)C(=O)[C@H]3[C@H]2C1 (stereo not given in full)
Marked response: bin B

Exam item: Which category does the recorded TGI put `S=c1[nH]nc(Cn2c3ccc(Br)cc3c3nc4ccccc4nc32)o1` in?
Marked response: bin C

Exam item: Lab note: sort `CCc1nc(N)nc(N)c1-c1ccc(N2CCOCC2)c(N=[N+]=[N-])c1` into the matching TGI band.
Marked response: bin C

Exam item: Which class does `N#C[Se]CCN1C(=O)c2ccccc2C1=O` fall in?
Marked response: bin A

Exam item: Sort into band: O=C(CC1(O)C(=O)Nc2c(Cl)cc(Cl)cc21)c1cccc([N+](=O)[O-])c1 (stereo not given)
Marked response: bin C

Exam item: // bin(item) where item = CC1(c2ccc(Cl)cc2)C=C(c2ccc(Cl)cc2)C(C#N)=C(C(C#N)C#N)N1 (stereo not given)
Marked response: bin B

Exam item: Which class holds `Cc1cc(C=O)c2c(=O)c3c(O)ccc(/C=C/C(C)C)c3oc2c1` ?
Marked response: bin C

Exam item: Into which category would you place `C=C(C)c1nc(Oc2ccccc2)nc(Oc2ccccc2)n1` ?
Marked response: bin B

Exam item: Which bin should I file `O=[N+]([O-])c1ccc(/C=C/c2ccc(/C=C/c3ccc([N+](=O)[O-])cc3[N+](=O)[O-])cc2)c([N+](=O)[O-])c1` under?
Marked response: bin C

Exam item: Which class does `CO/C(N)=C(\C#N)N=Cc1ccsc1` fall in?
Marked response: bin C

Exam item: Could you tell me which band CC(C)CCCC(C)C1CCC2C3CC([N+](=O)[O-])=C4CC(O)CCC4(C)C3CCC12C (stereo not given) belongs to?
Marked response: bin C

Exam item: Form: Item = `Nc1ccc2c(=S)c3ccccc3[nH]c2c1` ; Class = ?
Marked response: bin C

Exam item: Exercise: read the entry `CCN1CCN(CC(=O)Nc2nc3ccc(NCc4ccc(Br)cc4)cc3s2)CC1` and state which class it falls under.
Marked response: bin A

Exam item: Which bin, given its TGI, does CC(C)c1ccc2c(c1)CCC1C2CCCC1(C)NCc1ccccc1 (stereo not given) occupy?
Marked response: bin A

Exam item: Hi there! Could you help me figure out the category for CCC12C=C(C(=O)OC)N3c4ccccc4C4CCN(CCC1)C2C43 (stereo not given) please?
Marked response: bin C

Exam item: Band of `O=C(/C=C(\[O-])c1ccccc1)CCCCCCC(=O)/C=C(\[O-])c1ccccc1.O=C(/C=C(\[O-])c1ccccc1)CCCCCCC(=O)/C=C(\[O-])c1ccccc1.O=C(/C=C(\[O-])c1ccccc1)CCCCCCC(=O)/C=C(\[O-])c1ccccc1.[Y+3].[Y+3]` ?
Marked response: bin C
